Test system: Salmonella Typhimurium TA 100
assay explanation: Ames test for mutagenicity (plate assay, colony count)
condition details: (−)S9 mix, 0.1 mg/pl., 48 hours at 37° C.

- compound smiles: "O=C(O)/C=C/c1nn(Cc2ccc(Cl)cc2Cl)c2ccc(C(F)(F)F)cc12"
  Ames test (−)S9 0.1 mg/pl.: "Pass"
- compound smiles: "CCCOC(=O)c1nn(Cc2ccc(Cl)cc2Cl)c2ccccc12"
  Ames test (−)S9 0.1 mg/pl.: "Pass"
- compound smiles: "NNC(=O)c1nn(Cc2ccc(F)cc2F)c2ccc(C(F)(F)F)cc12"
  Ames test (−)S9 0.1 mg/pl.: "Pass"
- compound smiles: "NNC(=O)c1nn(Cc2ccc(Cl)cc2Cl)c2ncccc12"
  Ames test (−)S9 0.1 mg/pl.: "Pass"
- compound smiles: "NNC(=O)c1nn(Cc2ccc(Cl)cc2Cl)c2cc(F)ccc12"
  Ames test (−)S9 0.1 mg/pl.: "Pass"
- compound smiles: "O=C(O)c1nn(Cc2ccc(F)cc2F)c2cc(Cl)ccc12"
  Ames test (−)S9 0.1 mg/pl.: "Pass"
- compound smiles: "O=C(O)c1nn(Cc2ccc(Cl)cc2Cl)c2ncccc12"
  Ames test (−)S9 0.1 mg/pl.: "Pass"
- compound smiles: "O=C(O)/C=C/c1nn(Cc2ccc(Cl)cc2Cl)c2cc(F)ccc12"
  Ames test (−)S9 0.1 mg/pl.: "Pass"
- compound smiles: "O=C(O)c1nn(Cc2ccc(Cl)cc2Cl)c2cc(F)ccc12"
  Ames test (−)S9 0.1 mg/pl.: "Pass"
